# Target of assay: Mitogen-activated protein kinase kinase kinase 2 (Homo sapiens) + Dual specificity mitogen-activated protein kinase kinase 5 (Homo sapiens) (UniProt Q9Y2U5+Q13163)
# Sequence (Q13163 whole entry, looked up): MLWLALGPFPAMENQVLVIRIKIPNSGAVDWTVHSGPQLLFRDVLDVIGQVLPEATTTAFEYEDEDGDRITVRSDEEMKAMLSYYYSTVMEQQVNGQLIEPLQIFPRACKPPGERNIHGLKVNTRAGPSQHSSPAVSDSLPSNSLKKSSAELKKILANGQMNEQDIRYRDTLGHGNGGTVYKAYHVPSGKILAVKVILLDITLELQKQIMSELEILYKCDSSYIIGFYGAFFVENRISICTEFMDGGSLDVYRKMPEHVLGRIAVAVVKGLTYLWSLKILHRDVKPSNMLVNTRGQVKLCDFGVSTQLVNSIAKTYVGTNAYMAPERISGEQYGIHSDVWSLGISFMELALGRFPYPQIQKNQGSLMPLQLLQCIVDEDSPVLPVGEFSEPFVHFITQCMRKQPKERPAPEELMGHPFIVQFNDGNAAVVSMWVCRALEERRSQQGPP
# Sequence (Q9Y2U5 whole entry, looked up): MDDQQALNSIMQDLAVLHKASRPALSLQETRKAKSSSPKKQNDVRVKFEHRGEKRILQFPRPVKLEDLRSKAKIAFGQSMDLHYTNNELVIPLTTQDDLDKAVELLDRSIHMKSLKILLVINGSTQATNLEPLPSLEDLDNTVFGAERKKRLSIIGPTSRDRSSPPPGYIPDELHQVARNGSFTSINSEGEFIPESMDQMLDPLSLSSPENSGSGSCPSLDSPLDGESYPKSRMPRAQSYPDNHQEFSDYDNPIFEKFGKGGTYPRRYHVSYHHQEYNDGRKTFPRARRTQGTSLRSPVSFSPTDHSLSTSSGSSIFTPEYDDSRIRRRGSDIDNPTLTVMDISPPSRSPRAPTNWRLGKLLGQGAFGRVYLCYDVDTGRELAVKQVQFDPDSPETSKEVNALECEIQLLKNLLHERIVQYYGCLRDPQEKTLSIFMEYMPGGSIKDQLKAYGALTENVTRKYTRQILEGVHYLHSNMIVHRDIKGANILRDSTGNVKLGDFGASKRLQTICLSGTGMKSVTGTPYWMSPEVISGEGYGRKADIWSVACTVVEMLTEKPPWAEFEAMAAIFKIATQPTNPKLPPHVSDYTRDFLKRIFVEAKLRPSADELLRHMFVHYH
# Procedure summary: inhibitors of MEK5 binding to MEKK2, dose response, biochemical, bead multiplex flow cytometry, wildtype (AID 1897)
# Condition parameters: MEK5-MEKK2 PB1 binding
The source made the active and inactive calls. The rule behind the calls is not given here.
Entry note: the call must match one of active, inactive

Past entries and their recorded results:
Exercise: For `COCCNC(=O)CN(c1cc(Cl)ccc1OC)S(=O)(=O)c1ccc(C)c([N+](=O)[O-])c1` , which call appears in the assay record?
Key: inactive

Exercise: I would be grateful if you could indicate the recorded call for `C=CC#CC[N+]1(CC#Cc2ccccc2)CCOCC1` .
Key: inactive

Exercise: Each molecule tested received a call. Report the one for `C#CCOCCOCCOCCNc1nc(N2CCN(C(=O)[C@H]([C@@H](C)CC)n3cc([C@@H](N)Cc4ccc(O)cc4)nn3)CC2)nc(N2CCN(C(=O)[C@H](CCCCN)n3cc([C@@H](N)CC(C)C)nn3)CC2)n1` .
Key: active

Others:
Exercise: What call does the record list for `C#CCOCCOCCOCCNc1nc(N2CCN(C(=O)[C@H]([C@@H](C)CC)n3cc([C@@H](N)CC(C)C)nn3)CC2)nc(N2CCN(C(=O)[C@H](Cc3cc4ccccc4[nH]3)n3cc([C@@H](N)Cc4ccc(O)cc4)nn3)CC2)n1` ?
Key: inactive

Exercise: GET /call?item= `Cc1cc2ccccc2n1CCNC(=O)c1cccs1` returns the recorded outcome of this test.
Key: active

Exercise: Answer briefly: the call reported for `C#CCOCCOCCOCCNc1nc(N2CCN(C(=O)[C@H](CCCCN)n3cc([C@@H](N)CC(C)C)nn3)CC2)nc(N2CCN(C(=O)[C@H](Cc3cc4ccccc4[nH]3)n3cc([C@@H](N)Cc4ccc(O)cc4)nn3)CC2)n1` in this assay.
Key: inactive

---

# Target of assay: Mitogen-activated protein kinase kinase kinase 2 (Homo sapiens) + Dual specificity mitogen-activated protein kinase kinase 5 (Homo sapiens) (UniProt Q9Y2U5+Q13163)
# Procedure summary: inhibitors of MEK5 binding to MEKK2, dose response, biochemical, bead multiplex flow cytometry, wildtype (AID 1897)
# Condition parameters: MEK5-MEKK2 PB1 binding
Calls of active or inactive are those of the source. The rule behind the calls is not given here.
Observation type: EC50

Exercise: Endpoint output: EC50 of `CCN(CC)CCOC(=O)c1ccc(N/C=C(/C#N)c2nc(-c3ccc(OC)cc3)cs2)cc1` . Value?
Key: > 30 µM (inactive)

Exercise: // returns reported EC50 for input `Nc1ccc(N)c(C(=O)O)c1`
Key: 3.78 µM

Exercise: Request the reported EC50 associated with `FC(F)(F)c1cccc(NC(=S)N(CCCN2CCCC2)Cc2cccn2Cc2ccc(Cl)cc2)c1`
Key: 5.19 µM

Exercise: Which value of EC50 has been reported for `CCCCN(CC)CCNC(=O)c1cc2c(-c3ccc(Cl)cc3)nn(C)c2s1` in the records?
Key: 14.4 µM

Exercise: Given the entry `S=c1[nH]nc(-c2ccc(Cl)cc2)n1-c1ccc2c(c1)OCCO2` , report its measured EC50.
Key: > 30 µM (inactive)

Exercise: # query: EC50 of entry `CCC(/C=C1\Sc2ccc(OC)cc2N1CC)=C\c1sc2ccc(OC)cc2[n+]1CCCS(=O)(=O)[O-]`
Key: 4.49 µM

Exercise: I am curious: what EC50 value has been reported for `C#CCOCCOCCOCCNc1nc(N2CCN(C(=O)[C@H]([C@@H](C)CC)n3cc([C@@H](N)CO)nn3)CC2)nc(N2CCN(C(=O)[C@H](Cc3cc4ccccc4[nH]3)n3cc([C@@H](N)Cc4ccc(O)cc4)nn3)CC2)n1` ?
Key: 0.52 µM

Exercise: Quick check: EC50 of `CCCSc1ncnc2sc(C)c(C)c12` ?
Key: > 30 µM (inactive)

Exercise: Using the record for `CCOC(=O)N1CCN(c2c(N3CCN(c4ccccc4F)CC3)c(=O)c2=O)CC1` , report its EC50.
Key: > 30 µM (inactive)

Exercise: Data request, read-out EC50, for `CCc1ccc(Nc2n[n+](-c3ccccc3)c(-c3ccc(OCc4ccccc4)cc3)s2)cc1`
Key: 5.48 µM

The record that follows has no EC50 shown yet.
Exercise: Bench note: what EC50 did `CCCCCCCCCCCCCCCC[n+]1ccc(/C=N/O)cc1` show?
Key: 2.94 µM
